All figures here come from patent US20210087268A1.

Molecular target: T1, mouse TIGIT-Fc (rmTIGIT-Fc, R&D Systems) (mouse, UniProt P86176 29-148, limits assumed)
T1 construct: Bought protein; also called mouse TIGIT (rmTIGIT-Fc); not shown: Fc part of the bought fusion protein
T1 sequence (looked up): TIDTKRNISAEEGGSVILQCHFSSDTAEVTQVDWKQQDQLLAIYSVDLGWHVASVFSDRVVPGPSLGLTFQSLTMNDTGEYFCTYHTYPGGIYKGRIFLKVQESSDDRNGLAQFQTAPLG
Test: SPR (BIAcore T200), antibody immobilised on CM5 chip, TIGIT-Fc flowed
Measured Metric: kon

A selection of reference data follows.
{"columns": ["Binder", "kon"],
 "data": [
  ["S64-39-IgG1 (antibody, V domains shown, also called 564-39-IgG1 [sic]; antibody based on the S64-39 clones) VH: EVQLLESGGGLVQPGGSLRLSCAASGFTFSNYAMSWVRQAPGKGLEWVSGISPSGSSIYYADSVQGRFTISRDNSKNTLYLQMNSLRAEDTAVYYCAKAIRTCSLSHCYYYYGMDVWGQGTLVTVSS VL: QSVLTQPPSASGTPGQRVTISCSSSSSNIGSNAVNWYQQLPGTAPKLLIYYDNQRPSGVPDRFSGSKSGTSASLAISGLRSEDEADYYCATWDYSLSGYVFGGGTKLTVL", "62800 M⁻¹ s⁻¹"],
  ["F04-10-IgG1 (antibody, V domains shown, also called antibody based on the F04-10 clones) VH: EVQLLESGGGLVQPGGSLRLSCAASGFTFSSYYMSWVRQAPGKGLEWVSSIGSGSPSSTYYADSVKGRFTISRDNSKNTLYLQMNSLRAEDTAVYYCARSSYSGGNGYYYYAYAFDYWGQGTLVTVSS VL: EIVLTQSPGTLSLSPGERATLSCRASQSVSSSYLAWYQQKPGQAPRLLIYGASSRATGIPDRFSGSGSGTDFTLTISRLEPEDFAVYYCQQGYHRYATFGQGTKVEIK", "120000 M⁻¹ s⁻¹"]
]}

Field kon (entry S64-39-IgG4 (antibody, V domains shown, also called 564-39-IgG4 [sic]) VH: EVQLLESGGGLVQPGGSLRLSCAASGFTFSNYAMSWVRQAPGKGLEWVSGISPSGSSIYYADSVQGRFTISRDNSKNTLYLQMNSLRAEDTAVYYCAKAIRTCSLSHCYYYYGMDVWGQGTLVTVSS VL: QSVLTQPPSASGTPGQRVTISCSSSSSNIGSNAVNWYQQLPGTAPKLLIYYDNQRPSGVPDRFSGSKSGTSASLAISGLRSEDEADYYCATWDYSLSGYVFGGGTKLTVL ) reads 62200 M⁻¹ s⁻¹

// field: kon; key: 10A7 antibody (antibody, V domains shown) VH: EVQLVESGGGLTQPGKSLKLSCEASGFTFSSFTMHWVRQSPGKGLEWVAFIRSGSGIVFYADAVRGRFTISRDNAKNLLFLQMNDLKSEDTAMYYCARRPLGHNTFDSWGQGTLVTVSS VL: DIVMTQSPSSLAVSPGEKVTMTCKSSQSLYYSGVKENLLAWYQQKPGQSPKLLIYYASIRFTGVPDRFTGSGSGTDYTLTITSVQAEDMGQYFCQQGINNPLTFGDGTKLEIKR ; value = 490000 M⁻¹ s⁻¹
